Settings: human
QUANTITY_MEASURED: Hepatotoxicity (granulomatous hepatitis)
Numbers only.

Cc1c(C(C)C)c(=O)n(-c2ccccc2)n1C	2
C[C@@H](O)[C@H]1C(=O)N2C(C(=O)O)=C(S[C@@H]3CN[C@H](C(=O)Nc4cccc(C(=O)O)c4)C3)[C@H](C)[C@H]12	0

# evaluate next
Exam item: I'd like to know its Hepatotoxicity (granulomatous hepatitis). The molecule in question is CCCCC(C)(O)C/C=C/[C@H]1[C@H](O)CC(=O)[C@@H]1CCCCCCCO (stereo partly drawn)
Marked response: 0

====

Details: human
QUANTITY_MEASURED: Hepatotoxicity (severe hepatitis)
One number for each entry.

Some substances with known Hepatotoxicity (severe hepatitis) results, for comparison:
TINZAPARIN SODIUM	0
MEGLUMINE ANTIMONATE	0
STIBOGLUCONATE	0

// for each substance in input: emit Hepatotoxicity (severe hepatitis)
1. FILGRASTIM
2. CARBETIMER
3. ASPARAGINASE
4. NARTOGRASTIM
5. LENTINAN

Marked response:
[0, 0, 2, 0, 0]

// for each substance in input: emit Hepatotoxicity (severe hepatitis)
1. COLESTIPOL
2. POVIDONE
3. GONADOTROPIN, SERUM
4. DENILEUKIN DIFTITOX
5. INFLIXIMAB
6. INTERFERON ALFA
7. PENTOSAN POLYSULFATE SODIUM

Marked response:
0
0
0
0
2
1
0

====

Could you please report measured Hepatotoxicity (choleostasis) for the items listed next?
Details: human
One number for each entry.

Some compounds with known Hepatotoxicity (choleostasis) results, for comparison:
O=C(CCNNC(=O)c1ccncc1)NCc1ccccc1 [NIALAMIDE]	1
Cn1nnnc1SCC1=C(C(=O)O)N2C(=O)[C@@H](NC(=O)[C@H](O)c3ccccc3)[C@H]2SC1 [CEFAMANDOLE]	1
CN1CCN(CCCN2c3ccccc3Sc3ccc(C(F)(F)F)cc32)CC1 [TRIFLUOPERAZINE]	4
CS(=O)(=O)c1ccc2c(c1)N(CCCN1CCC(C(N)=O)CC1)c1ccccc1S2 [METOPIMAZINE]	1
CCc1nn(CCCN2CCN(c3cccc(Cl)c3)CC2)c(=O)n1CCOc1ccccc1 [NEFAZODONE]	0

// for each compound in input: emit Hepatotoxicity (choleostasis)
1. C[C@H]1COc2c(C3(N)CC3)c(F)cc3c(=O)c(C(=O)O)cn1c23 [PAZUFLOXACIN]
2. CCCCCCCCNC(C)C(O)c1ccc(SC(C)C)cc1 (stereo unspecified) [SULOCTIDIL]
3. Cc1c(C)c2ccc(OCCCN3CCN(Cc4ccc(Cl)cc4)CC3)cc2oc1=O
4. CC(=O)CCCCn1c(=O)c2c(ncn2C)n(C)c1=O [PENTOXIFYLLINE]
5. N[C@H](C(=O)O)[C@@H]1CC(Cl)=NO1 [ACIVICIN]
6. CN1C(=O)CN=C(c2ccccc2)c2cc(Cl)ccc21 [DIAZEPAM]

Marked response:
1. 0
2. 3
3. 0
4. 2
5. 0
6. 9

====

Experiment: Highest frequency of moderate liver toxicity observed during clinical trials, expressed as a percentage. [column '% BIOL' in source]
Conditions: human
Could you please report measured Hepatotoxicity (moderate) for the items listed next?
Give bare numbers, in %.

Some molecules with known Hepatotoxicity (moderate) results, for comparison:
CCN(CC)C(=O)N1CCN(C)CC1	0
CCOC(=O)/C=C(C)/C=C/C=C(C)/C=C/c1c(C)cc(OC)c(C)c1C [ETRETINATE]	33
C=CC1=C(C(=O)O)N2C(=O)[C@@H](NC(=O)/C(=N\O)c3csc(N)n3)[C@H]2SC1	28.6

// for each molecule in input: emit Hepatotoxicity (moderate)
1. NC(=O)N1C(=O)/C(=C(\O)c2cccs2)c2cc(Cl)ccc21
2. CCc1[nH]c(=O)[nH]c1C(=O)c1ccncc1
3. COCCOC(=O)C1=C(C)NC(C)=C(C(=O)OC(C)C)C1c1cccc([N+](=O)[O-])c1 (centres undefined)
4. CC(=O)OCC(=O)NCCCOc1cccc(CN2CCCCC2)c1 [ROXATIDINE ACETATE]
5. NS(=O)(=O)c1cc(C2(O)NC(=O)c3ccccc32)ccc1Cl (centres undefined)
6. O=C1c2cccc(O)c2C(=O)c2c(O)cccc21

Marked response:
1. 18.8
2. 0
3. 2.7
4. 0.4
5. 0
6. 0

====

Test: Highest frequency of moderate liver toxicity observed during clinical trials, expressed as a percentage. [column '% BIOL' in source]
Conditions: human
QUANTITY_MEASURED: Hepatotoxicity (moderate) (%)
Numbers only, in %.

Some compounds with known Hepatotoxicity (moderate) results, for comparison:
O=[N+]([O-])c1cc(Cl)cc(-c2cc(Cl)cc([N+](=O)[O-])c2O)c1O [NICLOFOLAN]	0
N[C@@H]1CN(c2c(F)cc3c(=O)c(C(=O)O)cn([C@@H]4C[C@@H]4F)c3c2Cl)CC12CC2 [SITAFLOXACIN ANHYDROUS]	23.2
CO/N=C(\C(=O)N[C@@H]1C(=O)N2C(C(=O)O)=C(COC(C)=O)CS[C@H]12)c1csc(N)n1 [CEFOTAXIME]	33.3
C[C@]12COC(=O)C[C@@H]1CC[C@@H]1[C@@H]2CC[C@@]2(C)[C@H]1CC[C@]2(C)O [OXANDROLONE]	0
C/C=C(/CC)C(=O)NC(N)=O	0

// for each compound in input: emit Hepatotoxicity (moderate)
1. COCc1c(C(=O)OC(C)C)ncc2[nH]c3ccc(OCc4ccccc4)cc3c12 [ABECARNIL]
2. CN(C)/N=N/c1[nH]cnc1C(N)=O [DACARBAZINE]

Marked response:
1. 8
2. 50

====

Conditions: human
Could you please report measured Hepatotoxicity (steatosis) for the items listed next?
Give bare numbers.

Some compounds with known Hepatotoxicity (steatosis) results, for comparison:
Cc1cc2c(C(C)C)c(O)c(O)c(C=O)c2c(O)c1-c1c(C)cc2c(C(C)C)c(O)c(O)c(C=O)c2c1O [GOSSYPOL]	0
COc1ccc(CCN(C)CCCC2(c3ccc(OC)c(OC)c3)S(=O)(=O)CCCS2(=O)=O)cc1OC	0
O=C1NC(=O)C(c2ccccc2)(c2ccccc2)N1 [PHENYTOIN]	4
[N-]=[N+]=O [NITROUS OXIDE]	0
COC1=C(C(=O)O)N2C(=O)[C@@H](NC(=O)[C@H](N)C3=CCC=CC3)[C@H]2SC1 [CEFROXADINE]	0

# evaluate next
Exam item: I'd like to know its Hepatotoxicity (steatosis). The compound in question is COc1cc(Cc2cnc(N)nc2N)cc(OC)c1OC.Cc1cc(NS(=O)(=O)c2ccc(N)cc2)no1 [CO-TRIMOXAZOLE]
Marked response: 1

====

Could you please report measured Hepatotoxicity (severe hepatitis) for the items listed next?
Details: human
Answers are plain numbers.

CCN1C(=O)NC(c2ccccc2)C1=O (stereo unspecified)	0

// for each molecule in input: emit Hepatotoxicity (severe hepatitis)
1. CN(C)CCCN1c2ccccc2CCc2ccc(Cl)cc21
2. C#CC(C)(O)CC (stereo unspecified)
3. CCCCNC(=O)NS(=O)(=O)c1ccc(N)cc1 [CARBUTAMIDE]
4. CNC1Cc2ccccc2N(C)c2ccccc21 (stereo unspecified)
5. CC(C(=O)Nc1cc(-c2ccccc2)nn1-c1ccccc1)N(C)C (stereo unspecified)

Marked response:
[0, 0, 3, 0, 1]

====

Conditions: human
Could you please report measured Hepatotoxicity (granulomatous hepatitis) for the items listed next?
Answers are plain numbers.

CC(C)(S)C(=O)N[C@@H](CS)C(=O)O	0
Cc1ccc(S(=O)(=O)NC(=O)NC2CCCCC2)cc1N [METAHEXAMIDE]	0

Exam item: I'd like to know its Hepatotoxicity (granulomatous hepatitis). The molecule in question is O=C(NCCN1CCOCC1)c1ccc(Cl)cc1 [MOCLOBEMIDE]
Marked response: 0

====

Assay: Highest frequency of moderate liver toxicity observed during clinical trials, expressed as a percentage. [column '% BIOL' in source]
Details: human
Class field: derived from Hepatotoxicity (moderate); ranges small value: < 1%; mid value: ≥ 1% and < 30%; large value: ≥ 30%

CCCCC1C(=O)N(c2ccccc2)N(c2ccc(O)cc2)C1=O (stereo not given) [OXYPHENBUTAZONE ANHYDROUS]	small value

Consider now this further molecule.
Exam item: Input "CC(C)(O/N=C(\C(=O)N[C@@H]1C(=O)N2C(C(=O)[O-])=C(C[n+]3ccccc3)CS[C@H]12)c1csc(N)n1)C(=O)O" ; output its category
Marked response: large value

====

Experiment: Highest frequency of moderate liver toxicity observed during clinical trials, expressed as a percentage. [column '% BIOL' in source]
Conditions: human, Liver
Class field: derived from Hepatotoxicity (moderate); ranges one: < 2%; two: ≥ 2% and < 20%; three: ≥ 20%

These solved cases illustrate the format of a correct answer.
CCn1cc(C(=O)O)c(=O)c2cc(F)c(N3CCNCC3)cc21 [NORFLOXACIN]	two
CN/C(=N/CCSCc1nc[nH]c1C)NC#N [CIMETIDINE]	three
CO[C@H]1/C=C/O[C@@]2(C)Oc3c(C)c(O)c4c(c3C2=O)C2=NC3(CCN(CC(C)C)CC3)NC2=C(NC(=O)/C(C)=C\C=C\[C@H](C)[C@H](O)[C@@H](C)[C@@H](O)[C@@H](C)[C@H](OC(C)=O)[C@@H]1C)C4=O [RIFABUTIN]	two
Cc1ccc(C(=O)c2cc(O)c(O)c([N+](=O)[O-])c2)cc1 [TOLCAPONE]	two
CC(C)n1c(/C=C/C(O)CC(O)CC(=O)O)c(-c2ccc(F)cc2)c2ccccc21 (stereo not drawn) [FLUVASTATIN]	three

Consider now this further molecule.
Exam item: Input Nc1nc2c(ncn2COCCO)c(=O)[nH]1 [ACYCLOVIR] ; output its category
Marked response: three

Recorded values, source ChEMBL document CHEMBL3137667.
